measured on: Protein kinase C zeta type (Homo sapiens, UniProt Q05513)
Sequence (Q05513 whole entry): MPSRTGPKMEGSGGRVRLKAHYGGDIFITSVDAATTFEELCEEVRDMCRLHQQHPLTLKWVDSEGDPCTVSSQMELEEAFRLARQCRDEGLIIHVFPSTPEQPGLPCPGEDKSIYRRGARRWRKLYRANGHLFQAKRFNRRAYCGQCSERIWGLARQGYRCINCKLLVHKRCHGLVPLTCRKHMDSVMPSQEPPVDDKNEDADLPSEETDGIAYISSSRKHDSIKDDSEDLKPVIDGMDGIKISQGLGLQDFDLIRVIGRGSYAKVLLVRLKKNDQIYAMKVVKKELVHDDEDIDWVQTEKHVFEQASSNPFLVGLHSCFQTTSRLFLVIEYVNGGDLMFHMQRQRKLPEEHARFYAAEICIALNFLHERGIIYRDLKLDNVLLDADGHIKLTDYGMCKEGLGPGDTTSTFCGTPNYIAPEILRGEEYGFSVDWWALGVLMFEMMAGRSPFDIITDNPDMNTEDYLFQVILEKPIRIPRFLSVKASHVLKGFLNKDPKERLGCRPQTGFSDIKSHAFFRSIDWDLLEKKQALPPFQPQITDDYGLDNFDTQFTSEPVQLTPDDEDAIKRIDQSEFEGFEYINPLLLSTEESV
protocol summary: Inhibition of human recombinant PKCzeta expressed in Sf21 cells using Bio-cdc peptide substrate and ATP after 60 mins by time-resolved fluorescence in-vitro kinase assay
measured parameter: pIC50
Convention used: pIC50 is expressed as -log10 of the molar concentration.

Task item: Using the record for C[C@@H]1C(=O)NN=C2COc3cc(-c4ccccc4)c(NC4CNC4)cc3N21 , report its pIC50.
Reply: 5.07

Task item: Using the record for C[C@@H]1C(=O)NN=C2COc3cc(C(F)(F)F)c(NC4CNC4)cc3N21 , report its pIC50.
Reply: 4.48

* * *

protocol summary: Unbound intrinsic clearance in mouse microsomes
Format: ADME, Microsome
measured parameter: CL free

Task item: Using the record for C[C@H]1C(=O)NN=C2COc3cc(-c4ccccc4)c(NC4CNC4)cc3N21 , report its CL free.
Reply: 417 mL/min/kg

Task item: Using the record for C[C@@H]1C(=O)NN=C2COc3cc(C(F)(F)F)c(NC4CNC4)cc3N21 , report its CL free.
Reply: < 138 mL/min/kg

Task item: Using the record for C[C@@H]1C(=O)NN=C2COc3cc(C(F)(F)F)c(NC4(C)CNC4)cc3N21 , report its CL free.
Reply: < 95 mL/min/kg

Task item: Using the record for C[C@H]1C(=O)NN=C2COc3cc(C(F)(F)F)c(NC4CNC4)cc3N21 , report its CL free.
Reply: < 120 mL/min/kg

Task item: Using the record for C[C@@H]1C(=O)NN=C2COc3cc(-c4ccccc4)c(NC4CNC4)cc3N21 , report its CL free.
Reply: 467 mL/min/kg

Task item: Using the record for Cc1cc2c(cc1NC1CNC1)N1C(=NNC(=O)[C@@H]1C)CO2 , report its CL free.
Reply: < 73.3 mL/min/kg

* * *

protocol summary: Unbound intrinsic clearance in rat microsomes
Assay type: ADME, Microsome
Assignment: determine reported CL free for the given compounds.
Numeric answer only, unit L/h/kg assumed.

Task item: Using the record for C[C@H]1C(=O)NN=C2COc3cc(C(F)(F)F)c(NC4CNC4)cc3N21 , report its CL free.
Reply: 7.1

Task item: Using the record for CC1C(=O)NN=C2COc3ccc(NC4CNC4)cc3N21 (configuration not stated) , report its CL free.
Reply: 2.9

Task item: Using the record for C[C@@H]1C(=O)NN=C2COc3cc(-c4ccccc4)c(NC4CNC4)cc3N21 , report its CL free.
Reply: 12

Task item: Using the record for CC1C(=O)NN=C2COc3cc(F)c(NC4CNC4)cc3N21 (configuration not stated) , report its CL free.
Reply: 3

Task item: Using the record for CC(C)c1cc2c(cc1NC1CNC1)N1C(=NNC(=O)C1C)CO2 (configuration not stated) , report its CL free.
Reply: 5.3

Task item: Using the record for CC1C(=O)NN=C2COc3cc(C(F)(F)F)c(CC4CNC4)cc3N21 (configuration not stated) , report its CL free.
Reply: 4.9

Task item: Using the record for Cc1cc2c(cc1NC1CNC1)N1C(=NNC(=O)C1C)CO2 (configuration not stated) , report its CL free.
Reply: 3.7
